Test system: Bone
procedure_details: Biodistribution in BALB/c mouse bone at 7.4 MBq, iv after 10 mins by gamma counting
Type: ADME, organism-based, Bone element
assay_context: in vivo
measured_endpoint: Drug uptake

• [18F]CCOCC[P+](c1ccccc1)(c1ccccc1)c1ccccc1 = 3.37 % ID/g

* * *

Tested on: Bone
procedure_details: Biodistribution in BALB/c mouse bone at 7.4 MBq, iv after 30 mins by gamma counting
Format: ADME, organism-based, Bone element
assay_context: in vivo, 0.5 h
measured_endpoint: Drug uptake (% ID/g)

- [18F]CCOCC[P+](c1ccccc1)(c1ccccc1)c1ccccc1: 2.35
